The next entries give measured Ki for UniProt:P35462.
Sequence (P35462 whole entry): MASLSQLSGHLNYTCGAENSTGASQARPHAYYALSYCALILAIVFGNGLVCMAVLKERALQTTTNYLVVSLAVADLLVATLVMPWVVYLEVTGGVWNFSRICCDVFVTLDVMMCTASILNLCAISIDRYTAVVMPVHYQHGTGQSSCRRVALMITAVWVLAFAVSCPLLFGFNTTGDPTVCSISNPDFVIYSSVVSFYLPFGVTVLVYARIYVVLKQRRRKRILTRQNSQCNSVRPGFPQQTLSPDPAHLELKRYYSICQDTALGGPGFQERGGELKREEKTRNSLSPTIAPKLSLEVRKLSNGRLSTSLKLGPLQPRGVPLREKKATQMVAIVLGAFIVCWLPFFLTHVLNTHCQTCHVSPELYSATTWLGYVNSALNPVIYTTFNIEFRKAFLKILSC
Answers are plain numbers, in nM.

Answered examples (2):
                                        mol  target_or_system  reported_endpoint  meas_value
0  COc1ccc2[nH]cc(CN3CCC(O)(c4ccc(SC)cc4)CC3)c2c1    UniProt:P35462                 Ki         580
1  N#CC1(c2ccc(Cl)cc2)CCN(Cc2c[nH]c3ccccc23)CC1    UniProt:P35462                 Ki         684

For every listed record, write down its Ki.
1. OC1(c2ccc(-c3ccccc3)cc2)CCN(Cc2c[nH]c3ccccc23)CC1
2. OC1(c2ccc(Cl)c(Cl)c2)CCN(Cc2c[nH]c3ccccc23)CC1
3. CC1(c2ccc(Cl)cc2)CCN(Cc2c[nH]c3ccccc23)CC1
4. OC1(c2cccc(C(F)(F)F)c2)CCN(Cc2c[nH]c3ccccc23)CC1
5. COC(=O)C1(c2ccc(Cl)cc2)CCN(Cc2c[nH]c3ccccc23)CC1

Response:
1: 467; 2: 111; 3: 2100; 4: 570; 5: 544

For every listed record, write down its Ki.
1. OC1(c2ccc(Cl)cc2)CCN(Cc2c[nH]c3ccccc23)CC1
2. Oc1ccc(C2(O)CCN(Cc3c[nH]c4ccccc34)CC2)cc1
3. CCOC(=O)C1(c2ccc(Cl)cc2)CCN(Cc2c[nH]c3ccccc23)CC1

Response:
163
16800
724

###

organism: Homo sapiens; assay: Selectivity for human dopamine D2L receptor over human dopamine D3 receptor
Label key: y means Ratio Ki under 5; n means Ratio Ki of 5 or more.

Before answering, review these 3 worked examples.
In [3]: df
Out[3]:
                                        mol  cat
0  CCCCCCn1cc(CN2CCC(O)(c3ccc(Cl)cc3)CC2)c2ccccc21    y
1  OC1(c2ccc(Cl)cc2)CCN(Cc2n[nH]c3ccccc23)CC1    y
2  OC1(c2ccc(F)cc2)CCN(Cc2c[nH]c3ccccc23)CC1    y

Request: Does the reported Ratio Ki of the following compound sit strictly below 5? `COc1ccc(C2(O)CCN(Cc3c[nH]c4ccccc34)CC2)cc1`
Response: n

Request: Also need `OC1(c2ccc(Cl)c(Cl)c2)CCN(Cc2c[nH]c3ccccc23)CC1` , thanks.
Response: n

###

Assign Ratio Ki to each entry below.
species on record: Homo sapiens; assay: Selectivity for human dopamine D2L receptor over human dopamine D4 receptor

For every listed record, write down its Ratio Ki.
1. N#CC1(c2ccc(Cl)cc2)CCN(Cc2c[nH]c3ccccc23)CC1
2. OC1(c2ccc(Cl)cc2)CCCN(Cc2c[nH]c3ccccc23)CC1 (centres undefined)
3. COC(=O)C1(c2ccc(Cl)cc2)CCN(Cc2c[nH]c3ccccc23)CC1
4. OC1(c2cccc(C(F)(F)F)c2)CCN(Cc2c[nH]c3ccccc23)CC1

Response:
1: 11; 2: 19; 3: 66; 4: 35

###

Assign EC50 to each entry below.
target: D(2) dopamine receptor (Homo sapiens); experiment: Antagonist activity at human dopamine D2 receptor expressed in CHO cells assessed as inhibition of quinpirole stimulated mitogenesis
Remember to put the unit after the number in your answer.

>>> df
                                        mol                       target_or_system  meas_value
0  COC(=O)C1(c2ccc(Cl)cc2)CCN(Cc2c[nH]c3ccccc23)CC1  D(2) dopamine receptor (Homo sapiens)     76.7 nM
1  OC1(c2cccc(C(F)(F)F)c2)CCN(Cc2c[nH]c3ccccc23)CC1  D(2) dopamine receptor (Homo sapiens)     69.1 nM

Request: Could you share what EC50 was measured for `OC1(c2cccc(Cl)c2)CCN(Cc2c[nH]c3ccccc23)CC1` , tested on D(2) dopamine receptor (Homo sapiens)?
Response: 83.4 nM

###

target: D(2) dopamine receptor (Homo sapiens, UniProt P14416)
Sequence (P14416 whole entry): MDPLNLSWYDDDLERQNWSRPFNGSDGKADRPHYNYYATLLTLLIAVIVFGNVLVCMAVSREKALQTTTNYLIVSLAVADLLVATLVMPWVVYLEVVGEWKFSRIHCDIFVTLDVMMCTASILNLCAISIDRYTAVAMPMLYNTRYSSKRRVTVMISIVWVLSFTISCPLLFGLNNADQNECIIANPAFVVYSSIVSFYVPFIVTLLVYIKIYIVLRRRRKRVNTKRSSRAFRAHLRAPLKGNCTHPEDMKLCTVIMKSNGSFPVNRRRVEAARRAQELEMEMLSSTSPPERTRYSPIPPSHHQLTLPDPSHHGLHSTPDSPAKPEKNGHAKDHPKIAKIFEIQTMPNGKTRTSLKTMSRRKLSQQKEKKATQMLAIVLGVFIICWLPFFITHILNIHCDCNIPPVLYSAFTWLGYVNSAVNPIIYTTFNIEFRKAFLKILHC
Reported endpoint: pKi
Give bare numbers, as −log10 of the molar value.

Answered examples (2):
>>> print(df.to_string())
                                   compound  reported_endpoint  meas_value
0  Cn1cc(CN2CCC(O)(c3ccc(Cl)cc3)CC2)c2ccccc21                pKi        7.53
1  N#CC1(c2ccc(Cl)cc2)CCN(Cc2c[nH]c3ccccc23)CC1                pKi        6.70

// switching to the query compound
Request: Could you share what pKi was measured for OC1(c2ccc(Cl)cc2)CCCN(Cc2c[nH]c3ccccc23)CC1 (stereo not drawn) , tested on D(2) dopamine receptor (Homo sapiens, UniProt P14416)?
Response: 6.70

Reference source for all entries: ChEMBL document CHEMBL1138415
